- assay: Stability indicating HPLC assay and related substances on storage (Example 3)
- Format: physicochemical
- measurement.context: 1 month, 60° C.
- Description: Assay (% w/w) and related substances determination Each test material was stored between 2-8*C prior to placing on stability. Each material was sub-divided into 900 mg aliquots, transferred to brown opaque HDPE plastic bottles and flushed with Argon prior to sealing. Sufficient samples were provided for each time point as well as spares for each storage condition. The samples were placed in appropriate incubators previously commissioned at storage conditions 25° C./60% RH, 40° C./75% RH and 60° C. […]
result.type: Total Known

The cases that follow already have their Total Known on record.
Ask: I am curious: what Total Known value has been reported for CN1CC[C@]23c4c5ccc(O)c4O[C@H]2[C@@H](O[C@@H]2O[C@H](C(=O)O)[C@@H](O)[C@H](O)[C@H]2O)C=C[C@H]3[C@H]1C5.Cl [Morphine-6-glucuronide hydrochloride] ?
Reply: 4.71%

Ask: And what about the compound CN1CC[C@]23c4c5ccc(O)c4O[C@H]2[C@@H](O[C@@H]2O[C@H](C(=O)O)[C@@H](O)[C@H](O)[C@H]2O)C=C[C@H]3[C@H]1C5 [Morphine-6-glucuronide base, morphine-6-β-D-glucuronide] ?
Reply: 1.04%

Ask: And what about the compound Br.CN1CC[C@]23c4c5ccc(O)c4O[C@H]2[C@@H](O[C@@H]2O[C@H](C(=O)O)[C@@H](O)[C@H](O)[C@H]2O)C=C[C@H]3[C@H]1C5 [Morphine-6-glucuronide hydrobromide] ?
Reply: 0.82%

Please examine the following record next.
Ask: I am curious: what Total Known value has been reported for CN1CCC23c4c5ccc(O)c4OC2C(OC2OC(C(=O)O)C(O)C(O)C2O)C=CC3C1C5.CN1CCC23c4c5ccc(O)c4OC2C(OC2OC(C(=O)O)C(O)C(O)C2O)C=CC3C1C5.O=C(O)C=CC(=O)O (stereo not shown) [Morphine-6-glucuronide maleate] ?
Reply: 2.18%

----------
- assay: Stability indicating HPLC assay and related substances on storage (Example 3)
- Format: physicochemical
- measurement.context: 1 month, 25° C./60% RH
result.type: Known Related Substances HN33177 (%)
Kindly answer with a numeric value in %, unit omitted.

The cases that follow already have their Known Related Substances HN33177 on record.
Ask: I am curious: what Known Related Substances HN33177 value has been reported for CN1CCC23c4c5ccc(O)c4OC2C(OC2OC(C(=O)O)C(O)C(O)C2O)C=CC3C1C5.O=P(O)(O)O (stereo not shown) [Morphine-6-glucuronide phosphate] ?
Reply: 0.78

Ask: And what about the compound CN1CCC23c4c5ccc(O)c4OC2C(OC2OC(C(=O)O)C(O)C(O)C2O)C=CC3C1C5.CN1CCC23c4c5ccc(O)c4OC2C(OC2OC(C(=O)O)C(O)C(O)C2O)C=CC3C1C5.O=C(O)C=CC(=O)O (stereo not shown) [Morphine-6-glucuronide fumarate] ?
Reply: 0.80

Ask: And what about the compound CN1CC[C@]23c4c5ccc(O)c4O[C@H]2[C@@H](O[C@@H]2O[C@H](C(=O)O)[C@@H](O)[C@H](O)[C@H]2O)C=C[C@H]3[C@H]1C5 [Morphine-6-glucuronide base, morphine-6-β-D-glucuronide] ?
Reply: 0.88

Ask: And what about the compound CN1CC[C@]23c4c5ccc(O)c4O[C@H]2[C@@H](O[C@@H]2O[C@H](C(=O)O)[C@@H](O)[C@H](O)[C@H]2O)C=C[C@H]3[C@H]1C5.Cl [Morphine-6-glucuronide hydrochloride] ?
Reply: 0.63

Ask: And what about the compound CN1CCC23c4c5ccc(O)c4OC2C(OC2OC(C(=O)O)C(O)C(O)C2O)C=CC3C1C5.CN1CCC23c4c5ccc(O)c4OC2C(OC2OC(C(=O)O)C(O)C(O)C2O)C=CC3C1C5.O=C(O)C=CC(=O)O (stereo not shown) [Morphine-6-glucuronide maleate] ?
Reply: 0.76

Ask: And what about the compound CN1CCC23c4c5ccc(O)c4OC2C(OC2OC(C(=O)O)C(O)C(O)C2O)C=CC3C1C5.CN1CCC23c4c5ccc(O)c4OC2C(OC2OC(C(=O)O)C(O)C(O)C2O)C=CC3C1C5.O=S(=O)(O)O (stereo not shown) [Morphine-6-glucuronide sulphate] ?
Reply: 0.63

Please examine the following record next.
Ask: I am curious: what Known Related Substances HN33177 value has been reported for Br.CN1CC[C@]23c4c5ccc(O)c4O[C@H]2[C@@H](O[C@@H]2O[C@H](C(=O)O)[C@@H](O)[C@H](O)[C@H]2O)C=C[C@H]3[C@H]1C5 [Morphine-6-glucuronide hydrobromide] ?
Reply: 0.74

----------
- assay: Stability indicating HPLC assay and related substances on storage (Example 3)
- Format: physicochemical
- measurement.context: 1 month, 25° C./60% RH
Listed next: entries and their corresponding M6G Assay, Corrected for the salt form.
Kindly answer with a numeric value in % w/w, unit omitted.

Ask: I am curious: what M6G Assay, Corrected for the salt form value has been reported for CN1CCC23c4c5ccc(O)c4OC2C(OC2OC(C(=O)O)C(O)C(O)C2O)C=CC3C1C5.CN1CCC23c4c5ccc(O)c4OC2C(OC2OC(C(=O)O)C(O)C(O)C2O)C=CC3C1C5.O=C(O)C=CC(=O)O (centres unmarked) [Morphine-6-glucuronide fumarate] ?
Reply: 99.32

Please examine the following record next.
Ask: I am curious: what M6G Assay, Corrected for the salt form value has been reported for CN1CC[C@]23c4c5ccc(O)c4O[C@H]2[C@@H](O[C@@H]2O[C@H](C(=O)O)[C@@H](O)[C@H](O)[C@H]2O)C=C[C@H]3[C@H]1C5.Cl [Morphine-6-glucuronide hydrochloride] ?
Reply: 99.30

----------
- assay: Stability indicating HPLC assay and related substances on storage (Example 3)
- Format: physicochemical
- measurement.context: 1 month, 40° C./75% RH
- Experimental: Assay (% w/w) and related substances determination Each test material was stored between 2-8*C prior to placing on stability. Each material was sub-divided into 900 mg aliquots, transferred to brown opaque HDPE plastic bottles and flushed with Argon prior to sealing. Sufficient samples were provided for each time point as well as spares for each storage condition. The samples were placed in appropriate incubators previously commissioned at storage conditions 25° C./60% RH, 40° C./75% RH and 60° C. […]
result.type: Known Related Substances Morphine (%)
Kindly answer with a numeric value in %, unit omitted.

The cases that follow already have their Known Related Substances Morphine on record.
Ask: I am curious: what Known Related Substances Morphine value has been reported for CN1CCC23c4c5ccc(O)c4OC2C(OC2OC(C(=O)O)C(O)C(O)C2O)C=CC3C1C5.CN1CCC23c4c5ccc(O)c4OC2C(OC2OC(C(=O)O)C(O)C(O)C2O)C=CC3C1C5.O=S(=O)(O)O (stereo not shown) [Morphine-6-glucuronide sulphate] ?
Reply: 0.21

Ask: And what about the compound CN1CCC23c4c5ccc(O)c4OC2C(OC2OC(C(=O)O)C(O)C(O)C2O)C=CC3C1C5.CN1CCC23c4c5ccc(O)c4OC2C(OC2OC(C(=O)O)C(O)C(O)C2O)C=CC3C1C5.O=C(O)C=CC(=O)O (stereo not shown) [Morphine-6-glucuronide maleate] ?
Reply: 0.12

Further cases:
Ask: I am curious: what Known Related Substances Morphine value has been reported for CN1CCC23c4c5ccc(O)c4OC2C(OC2OC(C(=O)O)C(O)C(O)C2O)C=CC3C1C5.CN1CCC23c4c5ccc(O)c4OC2C(OC2OC(C(=O)O)C(O)C(O)C2O)C=CC3C1C5.O=C(O)C=CC(=O)O (stereo not shown) [Morphine-6-glucuronide fumarate] ?
Reply: 0.10

Ask: And what about the compound CN1CC[C@]23c4c5ccc(O)c4O[C@H]2[C@@H](O[C@@H]2O[C@H](C(=O)O)[C@@H](O)[C@H](O)[C@H]2O)C=C[C@H]3[C@H]1C5.Cl [Morphine-6-glucuronide hydrochloride] ?
Reply: 0.08

----------
- assay: Stability indicating HPLC assay and related substances on storage (Example 3)
- Format: physicochemical
- measurement.context: 3 months, 40° C./75% RH
Listed next: entries and their corresponding Known Related Substances HN75076.
Kindly answer with a numeric value in %, unit omitted.

Ask: I am curious: what Known Related Substances HN75076 value has been reported for CN1CCC23c4c5ccc(O)c4OC2C(OC2OC(C(=O)O)C(O)C(O)C2O)C=CC3C1C5.CN1CCC23c4c5ccc(O)c4OC2C(OC2OC(C(=O)O)C(O)C(O)C2O)C=CC3C1C5.O=S(=O)(O)O (stereo not drawn) [Morphine-6-glucuronide sulphate] ?
Reply: 0.04

Ask: And what about the compound CN1CCC23c4c5ccc(O)c4OC2C(OC2OC(C(=O)O)C(O)C(O)C2O)C=CC3C1C5.CN1CCC23c4c5ccc(O)c4OC2C(OC2OC(C(=O)O)C(O)C(O)C2O)C=CC3C1C5.O=C(O)C=CC(=O)O (stereo not drawn) [Morphine-6-glucuronide fumarate] ?
Reply: 0.40

Please examine the following record next.
Ask: I am curious: what Known Related Substances HN75076 value has been reported for CN1CCC23c4c5ccc(O)c4OC2C(OC2OC(C(=O)O)C(O)C(O)C2O)C=CC3C1C5.O=P(O)(O)O (stereo not drawn) [Morphine-6-glucuronide phosphate] ?
Reply: 0.12
